- experimental target: T1, human MSLN-R3 protein expressed on HEK293T cells (HEK293T-hMSLN-R3) (human, UniProt Q13421 487-606)
- T1 construct: C-terminal limit uncertain
- T1 sequence (Q13421 495-614): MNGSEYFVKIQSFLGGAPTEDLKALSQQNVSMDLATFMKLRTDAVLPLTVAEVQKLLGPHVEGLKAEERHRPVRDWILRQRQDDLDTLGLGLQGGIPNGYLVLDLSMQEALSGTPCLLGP
- measurement notes: FACS on HEK293T-hMSLN-R3 cells;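 note: chimeric antibodies incubated with cells on ice for 2 h, binding read by flow cytometry as mean fluorescence intensity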

binder	binding result
S009-F8-32.3 (antibody, human IgG1, kappa, V domains shown, human-murine chimeric antibody, human IgG1/kappa constant regions) VH: QVQLKESGPGLVAPSQSLSITCTVSGFSLSSYAISWVRQPPGKGLEWLGVIWTGGGTNYNSALKSRLSISKDNSKSQVFLKMNSLQTDDTARFYCARNNYGRLDYAMDYWGQGTSVTVSS VL: DVVMTQTPLSLPVSLGDQASISCRSSQSLVHGNGNTYLHWYLQKPGQSPKLLIYKVSNRFSGVPDRFSGSGSGTDFTLKISRVETEDLGVYFCSQSTHVPFTFGSGTKLEIKR	no binding
S009-F8-7.5 (antibody, human IgG1, kappa, V domains shown, human-murine chimeric antibody, human IgG1/kappa constant regions) VH: DVQLQESGPGLVKPSQSLSLTCSVTGYSITSGYYWNWIRQFPGNKLEWMAYIRYDGSNNYNPSLKNRISIIRDTSKNQFFLRLNSVTTEDTATYYCAKSYYGMDDWGQGISVTVSS VL: DIQMTQSPASLSASVGETVTITCRTSGDIHNYLAWYQQKQGKSPQLLVYKAKTLENGVPSRFTGSGSGTQFSLKIDSLQPEDFGTYYCQHFWTTPYTFGGGTKLEIKR	no binding
S009-F8-33.12 (antibody, human IgG1, kappa, V domains shown, human-murine chimeric antibody, human IgG1/kappa constant regions) VH: EVQLQQSGAELVKPGASVKLSCTASAFNIKDYYMHWVKQRTEQGLEWIGRIDPEDGETKYAPKFQGKATITADTSSNTAYLQLSSLTSEDTAVYYCASGSGTGAMDYWGQGTSVTVSS VL: DIVMTQSQKFMSTSVGDRVSITCKASQNVRTAVGWYQQKPGQSPKALIYLASNRHTGVPDRFTGSGSGTDFTLTISNVQSEDLADYFCLQHWNSPYTFGGGTKLVIKR	no binding

These entries and their values trace back to patent US20250250357A1.
